- Test system: SK-MEL-2 melanoma
- Assay details: NCI-60 one-dose screen, 48 h (100 = growth as untreated, 0 = no growth, -100 = all killed)
- Conditions: 10 µM
- Procedure: Growth inhibition of the SK-MEL-2 human tumor cell line is measured as a screen for anti-cancer activity. Cells are grown in 96 well plates and exposed to the test compound for 48 hours. Compounds are tested at a single concentration, which is 10^-5 M for most compounds. The reported endpoint is percent growth (GI% or GIPRCNT), where numbers from 0 - 100% represent growth inhibition, and numbers from -100% - 0 represent cell death. For example, a value of 40 represents 60% growth inhibition. […]
The panel holds about 83,000 compounds, 20% with a hit somewhere; the sample as a whole holds those more often.

# Compound, Units text, growth
measured = [
    ("O=C1NC(=O)C2C(=O)NC(=O)C1C21CCc2ccccc21 (stereo not drawn)", "%", 118),
    ("Nc1ccccc1SC(CC(=O)c1ccccc1)c1c(Cl)cccc1Cl (stereo not drawn)", "%", 91.6),
    ("CCCCNC(=O)C(=O)NCCCC", "%", 123),
    ("CCCCCCCO", "%", 134),
    ("Cc1nc2ccccc2c2nnc(SCC(=O)N(Cc3ccccc3)c3ccccc3)n12", "%", 51.2),
    ("O=C1Cc2ccccc2C(=O)O1", "%", 103),
    ("O=C1C=C(Nc2ccc([N+](=O)[O-])cc2)c2ccccc2C1=O", "%", -7.97),
    ("O=c1cc(-c2ccccc2)nc2cc(-c3ccco3)[nH]n12", "%", 102),
    ("OCc1ccc(-c2ccc(-c3ccc(CO)s3)o2)s1", "%", 79.7),
    ("COc1cc(CN)ccc1O", "%", -8.32),
    ("Oc1ccccc1O", "%", 90.1),
    ("Cc1ccc(C)n1-c1ccsc1C(=O)NNC(=O)CCl", "%", 91.2),
    ("CCOC(=O)c1cc(/C=C/c2cccc(Cl)c2)on1", "%", 113),
    ("O=C(/C(=N/O)c1ccccc1)c1ccccc1", "%", 121),
    ("O=C(O)c1cccc([N+](=O)[O-])c1", "%", 112),
    ("CCOc1ccc(/C=C/C(=O)c2ccccc2)cc1", "%", 91.9),
    ("CN(C)c1ccc(C(c2ccc(O)cc2)c2ccc(N(C)C)cc2)cc1", "%", 101),
    ("CC(=Nc1ccccc1)C1=C(O)C(Cc2cccc(F)c2)NC1=O (stereo not drawn)", "%", 13.1),
    ("C/C=C/CC(C)C(O)C1C(=O)NC(CC)C(=O)N(C)CC(=O)N(C)C(CC(C)C)C(=O)NC(C(C)C)C(=O)N(C)C(CC(C)C)C(=O)NC(C)C(=O)NC(C)C(=O)N(C)C(CC(C)C)C(=O)N(C)C(CC(C)C)C(=O)N(C)C(C(C)C)C(=O)N1C (stereo not drawn)", "%", -36.5),
    ("OC(c1ccccn1)C(O)c1ccccn1 (stereo not drawn)", "%", 108),
    ("CCC/C=C(/C(C)=O)C(=O)OCC", "%", 132),
    ("CC1(C(=O)O)NC(C(=O)O)Cc2c1[nH]c1ccccc21 (stereo not drawn)", "%", 93.7),
    ("O=C(O)/C=C/c1ccc2c(c1)CCC2", "%", 110),
    ("CC(=O)OCCC(C)CCC=C(C)C (stereo not drawn)", "%", 98.1),
    ("CC(C)CCCC(=O)O", "%", 102),
    ("COC(=O)c1ccccc1Br", "%", 114),
    ("Nc1ncnc2[nH]ncc12", "%", -14.1),
    ("COc1ccc(Oc2c(I)cc(CC(NC(C)=O)C(=O)O)cc2I)cc1 (stereo not drawn)", "%", 102),
    ("CCn1c(=O)n(C)c2c(=O)n(C)c(=O)n(C)c21", "%", 104),
    ("O=c1[nH][nH]c(=O)c2cc([N+](=O)[O-])ccc12", "%", 103),
    ("CS(=O)CC1=NC(=N)N=C1CS(C)=O (stereo not drawn)", "%", 115),
    ("CCOC(=O)C(O)C(O)C(=O)OCC (stereo not drawn)", "%", 103),
    ("C=CCCCCCCCCCOC(C)=O", "%", 98.5),
]

---

A collection of compounds and their measured growth
- Test system: MALME-3M melanoma
- Assay details: NCI-60 one-dose screen, 48 h (100 = growth as untreated, 0 = no growth, -100 = all killed)
- Conditions: 10 µM
The panel holds about 83,000 compounds, 20% with a hit somewhere; the sample as a whole holds those more often.

# Input smiles, Assay system, Units text, growth
data = [
    ("O=C(O)c1cc([N+](=O)[O-])ccc1Cl", "MALME-3M melanoma", "%", 131),
    ("S=c1nn[nH]c2ccccc12", "MALME-3M melanoma", "%", 148),
    ("CCNCCCCNCCCCNCCCCNCCCCNCC", "MALME-3M melanoma", "%", -12.6),
    ("Cc1cccc([N+](=O)[O-])c1Cl", "MALME-3M melanoma", "%", 109),
]

---

- Tested on: 786-0 renal
- Assay details: NCI-60 one-dose screen, 48 h (100 = growth as untreated, 0 = no growth, -100 = all killed)
- Conditions: 10 µM
This is part of a sample that, as a whole, favours compounds with a hit. Of some 83,000 tested, about 20% had one in any assay.
Measured attribute: growth (%)

# Compound, Measured attribute, Result
measured = [
    ("CCc1ccc(/C(C#N)=C/C=C/c2ccccc2)cc1", "growth", 63.2),
    ("C/C(=C\\c1ccc([N+](=O)[O-])cc1)C(=O)O", "growth", 96.7),
    ("CCCCNC1(C#N)CCN(Cc2ccccc2)CC1", "growth", 84.5),
    ("CC1(C(N)=O)CCC(C(=O)O)C1(C)C (stereo unspecified)", "growth", 98),
    ("COc1ccc(OC)c(/C=C2\\CCc3ccccc3C2=O)c1", "growth", 46.9),
    ("CCO/C=C1\\SC(=S)N(c2cccc(C)c2)C1=O", "growth", 106),
    ("C/C(=N\\NC(=O)c1ccccc1N)c1ccccc1O", "growth", 60.6),
    ("O=S(=O)(O)CC(O)CN1CCN(CCO)CC1 (stereo unspecified)", "growth", 105),
    ("Oc1ccc(O)cc1", "growth", 114),
    ("O=c1cc(-c2ccccc2)[nH]c2c1CCCC2", "growth", 36.4),
    ("O=[N+]([O-])c1ccc(Sc2ccncn2)c([N+](=O)[O-])c1", "growth", 69.7),
    ("Cc1nc2ccccc2c(C(=O)O)c1O", "growth", 103),
    ("Oc1ccccc1-c1nnco1", "growth", 90.6),
    ("Cc1c(O)cccc1O", "growth", 102),
    ("O=S(=O)(O)C(Nc1ccccc1)c1ccccc1 (stereo unspecified)", "growth", 100),
    ("COC1=CC(=O)c2nc(Cl)ccc2C1=O", "growth", 72.4),
    ("O=C(Nc1cc(-c2ccccc2)[nH]n1)c1ccc(Cl)cc1", "growth", 79.5),
    ("CCCCC/C=N/Nc1nc(C)cc(=O)[nH]1", "growth", 102),
    ("CCS(=O)(=O)CCCl", "growth", 105),
    ("c1ccc(/C(=N\\N=C(/c2ccccc2)c2cccs2)c2cccs2)cc1", "growth", 84.8),
    ("O=C(O)c1cccc([N+](=O)[O-])c1O", "growth", 102),
    ("CCOC(=O)c1ccc(NC(=S)P(=O)(c2ccccc2)c2ccccc2)cc1", "growth", 101),
    ("CCC/C=C(\\C)C(C)(C#N)C(=O)OCC (stereo unspecified)", "growth", 110),
    ("O=C(NCO)c1ccccc1", "growth", 108),
    ("CC(=O)OCCC(C)CCC=C(C)C (stereo unspecified)", "growth", 108),
    ("COC(=O)c1[nH]c(=O)c(C#N)c(C(=O)OC)c1C(=O)c1ccccc1", "growth", 100),
    ("CCOC(=O)Nc1nn[nH]n1", "growth", 105),
    ("O=S(=O)(O)c1ccc(Cl)c(Cl)c1", "growth", 98.5),
    ("CCCNc1ccc(C2=NCCCN2)cc1", "growth", 88.9),
    ("NCCCN", "growth", 104),
    ("COc1ccc(Oc2c(I)cc(CC(NC(C)=O)C(=O)O)cc2I)cc1 (stereo unspecified)", "growth", 71.7),
]

---

- Tested on: SNB-75 CNS
- Assay details: NCI-60 one-dose screen, 48 h (100 = growth as untreated, 0 = no growth, -100 = all killed)
- Conditions: 10 µM
This is part of a sample that, as a whole, favours compounds with a hit. Of some 83,000 tested, about 20% had one in any assay.
Measured attribute: growth (%)

# Compound, Measured attribute, Result
data = [
    ("CCCCC(=O)c1ccc(OC)cc1", "growth", 101),
    ("CCOC(=O)Nc1nn[nH]n1", "growth", 94.8),
    ("C[C@]12CC[C@@H]3c4ccc(OCC(=O)O)cc4CC[C@H]3[C@@H]1CCC2=O", "growth", 83.5),
    ("CC(C)(O)C#CC#CC(C)(C)O", "growth", 94),
    ("CN(C)Cc1cc(C(C)(C)CC(C)(C)C)ccc1O", "growth", 79.9),
    ("CCCOC(=O)C(O)c1ccccc1 (stereo not given)", "growth", 96.7),
    ("Cc1c(O)cccc1O", "growth", 99.1),
    ("COC(=O)C(O)c1ccccc1 (stereo not given)", "growth", 93),
    ("COc1ccc(-c2cc(-c3cc(-c4ccc(OC)cc4)nc(N)n3)nc(N)n2)cc1", "growth", 91.4),
    ("CC1(C)N=C(N)N=C(N)N1c1cccc(Br)c1", "growth", 58.6),
    ("CSc1[nH]c(=O)ncc1F", "growth", 102),
    ("CCCCNC(=O)C(=O)NCCCC", "growth", 116),
    ("COC(=O)Nc1nc2ccc(C(=O)c3ccc(F)cc3)cc2[nH]1", "growth", 31),
    ("CC(=O)c1ccc(C(C)(C)C)cc1", "growth", 97.7),
    ("CC(=O)Oc1ccc(Br)cc1C(=O)O", "growth", 101),
    ("CNc1nc(NC)c2cn[nH]c2n1", "growth", 91.1),
    ("c1csc(-c2cc(-c3cc(-c4cccs4)[nH]n3)n[nH]2)c1", "growth", 128),
    ("CCCCCCCCCCCCCC(=O)Oc1ccc[nH]c1=O", "growth", 110),
    ("N#Cc1ccc(OC(=O)Nc2ccc(Cl)c(Cl)c2)cc1", "growth", 93.2),
    ("C=CCCCCCCCCCOC(C)=O", "growth", 101),
]
